The measurements presented in this section are drawn from PubChem BioAssay AID2060492.

Test system: 695427-040-R-J1-PDC complex spheroids, viability percent T/C;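 further: spheroids exposed to compounds for seven days before readout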
Assay: Anticancer human tumor 695427-040-R-J1-PDC patient-derived colon adenocarcinoma cell line growth inhibition [GQUAD]
Settings: second compound 3.16 µM; first compound 3.16 µM; active compounds read low
Excerpt: DNA G-quadruplex Stabilizer Agents in Combinations in Complex Spheroids A high-throughput screen of multi-cell type tumor spheroids was designed to identify active combinations of DNA G-quadruplex stabilizer agents and targeted small molecules. […] Compounds. […] If the clinical Cmax for an agent had not been determined, the highest concentration tested was 10 microM. […]
Output true for records whose viability, T/C is lower than 50%, false for records at or above 50%.

Study these solved cases before continuing.
Asked: Here's an entry: CC(=O)O[C@H]1C(=O)[C@@]2(C)[C@H]([C@H](OC(=O)c3ccccc3)[C@]3(O)C[C@H](OC(=O)[C@H](O)[C@@H](NC(=O)c4ccccc4)c4ccccc4)C(C)=C1C3(C)C)[C@]1(OC(C)=O)CO[C@@H]1C[C@@H]2O + Cc1[nH]c2ccc(F)cc2c1-c1nc2c3cccnc3c3ncccc3c2[nH]1 . Is its viability, T/C below 50%?
Given back: true

Asked: Here's an entry: C=CCn1c(=O)c2cnc(Nc3ccc(N4CCN(C)CC4)cc3)nc2n1-c1cccc(C(C)(C)O)n1 + Cc1cnc(CNC(=O)c2c(=O)c3ccc(N4CCCN(C)CC4)nc3n3c2sc2ccccc23)cn1 . Is its viability, T/C below 50%?
Given back: true

Asked: Here's an entry: CC(C)(O)C1CCC(Nc2ccc3ncc(-c4cccc(C(F)(F)F)c4)n3n2)CC1 (stereo not given) + Cc1cnc(CNC(=O)c2c(=O)c3ccc(N4CCCN(C)CC4)nc3n3c2sc2ccccc23)cn1 . Is its viability, T/C below 50%?
Given back: true

Asked: Here's an entry: C=CC(=O)N1CCN(c2nc(=O)n(-c3c(C)ccnc3C(C)C)c3nc(-c4c(O)cccc4F)c(F)cc23)C(C)C1 (stereo not given) + Cc1[nH]c2ccc(F)cc2c1-c1nc2c3cccnc3c3ncccc3c2[nH]1 . Is its viability, T/C below 50%?
Given back: false

Asked: Here's an entry: COc1ncnc(C2CC2)c1-c1ncc2cnn(Cc3ccc(-c4nc(C(F)(F)F)cn4C(C)C)cc3)c2n1 + Cc1cnc(CNC(=O)c2c(=O)c3ccc(N4CCCN(C)CC4)nc3n3c2sc2ccccc23)cn1 . Is its viability, T/C below 50%?
Given back: false

Asked: Here's an entry: CCCS(=O)(=O)Nc1ccc(F)c(C(=O)c2c[nH]c3ncc(-c4ccc(Cl)cc4)cc23)c1F + CN(C)c1ccc(Nc2c3ccc(NC(=O)CCN4CCCC4)cc3nc3cc(NC(=O)CCN4CCCC4)ccc23)cc1 . Is its viability, T/C below 50%?
Given back: false

Further cases:
Asked: Here's an entry: CC1COCCN1c1cc(C2(O)CC3CCC(C2)O3)c2cnn(-c3ccn[nH]3)c2n1 (stereo not given) + Cc1cnc(CNC(=O)c2c(=O)c3ccc(N4CCCN(C)CC4)nc3n3c2sc2ccccc23)cn1 . Is its viability, T/C below 50%?
Given back: true

Asked: Here's an entry: COc1cc(C2c3cc4c(cc3C(OC3OC5COC(C)OC5C(O)C3O)C3COC(=O)C23)OCO4)cc(OC)c1O (stereo not given) + Cc1[nH]c2ccc(F)cc2c1-c1nc2c3cccnc3c3ncccc3c2[nH]1 . Is its viability, T/C below 50%?
Given back: false

Asked: Here's an entry: O=C(c1cc(Cc2n[nH]c(=O)c3ccccc23)ccc1F)N1CCN(C(=O)C2CC2)CC1 + Cc1[nH]c2ccc(F)cc2c1-c1nc2c3cccnc3c3ncccc3c2[nH]1 . Is its viability, T/C below 50%?
Given back: false

Asked: Here's an entry: O=c1[nH]cc(F)c(=O)[nH]1 + Cc1cnc(CNC(=O)c2c(=O)c3ccc(N4CCCN(C)CC4)nc3n3c2sc2ccccc23)cn1 . Is its viability, T/C below 50%?
Given back: false

Asked: Here's an entry: Cc1cccc(N(C)C(=O)C2C(O)CCN2c2nc(C)cc(C(F)(F)F)c2C#N)c1 (stereo not given) + CN(C)c1ccc(Nc2c3ccc(NC(=O)CCN4CCCC4)cc3nc3cc(NC(=O)CCN4CCCC4)ccc23)cc1 . Is its viability, T/C below 50%?
Given back: false

Asked: Here's an entry: CC(C)(O)C1CCC(Nc2ccc3ncc(-c4cccc(C(F)(F)F)c4)n3n2)CC1 (stereo not given) + Cc1[nH]c2ccc(F)cc2c1-c1nc2c3cccnc3c3ncccc3c2[nH]1 . Is its viability, T/C below 50%?
Given back: false

Asked: Here's an entry: C#Cc1c(F)ccc2cc(O)cc(-c3ncc4c(N5CC6CCC(C5)N6)nc(OCC56CCCN5CC(F)C6)nc4c3F)c12 (stereo not given) + Cc1cnc(CNC(=O)c2c(=O)c3ccc(N4CCCN(C)CC4)nc3n3c2sc2ccccc23)cn1 . Is its viability, T/C below 50%?
Given back: true

Asked: Here's an entry: C=CC(=O)N1CCN(c2nc(=O)n(-c3c(C)ccnc3C(C)C)c3nc(-c4c(O)cccc4F)c(F)cc23)C(C)C1 (stereo not given) + CN(C)c1ccc(Nc2c3ccc(NC(=O)CCN4CCCC4)cc3nc3cc(NC(=O)CCN4CCCC4)ccc23)cc1 . Is its viability, T/C below 50%?
Given back: false

Asked: Here's an entry: COc1ncnc(C2CC2)c1-c1ncc2cnn(Cc3ccc(-c4nc(C(F)(F)F)cn4C(C)C)cc3)c2n1 + CN(C)c1ccc(Nc2c3ccc(NC(=O)CCN4CCCC4)cc3nc3cc(NC(=O)CCN4CCCC4)ccc23)cc1 . Is its viability, T/C below 50%?
Given back: false

Asked: Here's an entry: C=CCn1c(=O)c2cnc(Nc3ccc(N4CCN(C)CC4)cc3)nc2n1-c1cccc(C(C)(C)O)n1 + Cc1[nH]c2ccc(F)cc2c1-c1nc2c3cccnc3c3ncccc3c2[nH]1 . Is its viability, T/C below 50%?
Given back: false

Asked: Here's an entry: Nc1ccn(C2OC(CO)C(O)C2(F)F)c(=O)n1 (stereo not given) + Cc1cnc(CNC(=O)c2c(=O)c3ccc(N4CCCN(C)CC4)nc3n3c2sc2ccccc23)cn1 . Is its viability, T/C below 50%?
Given back: true

Asked: Here's an entry: COc1ncnc(C2CC2)c1-c1ncc2cnn(Cc3ccc(-c4nc(C(F)(F)F)cn4C(C)C)cc3)c2n1 + Cc1[nH]c2ccc(F)cc2c1-c1nc2c3cccnc3c3ncccc3c2[nH]1 . Is its viability, T/C below 50%?
Given back: false
